Origin of values: PubChem BioAssay

test.summary: PSAC antagonists in infected red cells, primary screen, cell-based, P. falciparum Indochina, OD700, 1 h (AID 1154)
condition.description: P. falciparum Indochina infected RBC osmotic lysis, called active from +8 up or from −8 down
Activity calls are given as the source filed them.
Pick one: Y (active), N (inactive)

What is the recorded call for this compound in the test? Cc1ccc(S[C@]2(C(=O)NCCN3CCOCC3)CC(=O)N(Cc3ccccc3)[C@@H]2c2ccc(CO)cc2I)cc1
Y

What is the recorded call for this compound in the test? NCCCCCNC(=O)[C@@H]1C[C@@H]2C(=O)N[C@@H](Cc3ccccc3)C(=O)N2[C@@H]1c1cccc(OCCO)c1
N

What is the recorded call for this compound in the test? COC(=O)c1c(CC[C@@H](CO)NC(=O)N2CCC[C@H]2Cn2cc(-c3ccccn3)nn2)oc(C(C)=O)c1C(=O)OC
N

What is the recorded call for this compound in the test? COC(=O)[C@@]1(Cc2ccc(F)cc2)[C@H]2c3cc(C(=O)N(C)C)n(Cc4nc5ccccc5[nH]4)c3C[C@H]2CN1C(=O)c1ccccc1
Y

What is the recorded call for this compound in the test? COc1ccc(NN2C(C(O)c3ccc([N+](=O)[O-])cc3)C=CC3C(=O)N(C4CCCCC4)C(=O)C32)cc1 (stereo not given)
N

What is the recorded call for this compound in the test? [N-]=[N+]=NCc1ccccc1[C@@H]1OC(c2ccc(OCCCO)cc2)=N[C@]1(CCS(=O)(=O)c1ccccc1)C(=O)NCCN1CCOCC1
Y

What is the recorded call for this compound in the test? COc1cc2c(cc1OC)CN(C(=O)[C@@H]1[C@H]3C(=O)O[C@H](c4ccccc4)[C@H](c4ccccc4)N3[C@H](c3ccc(O)cc3)[C@@]13C(=O)Nc1ccc(C#CC4(O)CCCCCC4)cc13)CC2
N

What is the recorded call for this compound in the test? OC([C@@H]1CC(c2ccccc2)=NO1)[C@H]1CC(c2ccccc2)=NO1 (stereo not given in full)
Y

What is the recorded call for this compound in the test? CC1CC/C=C\[C@H]2OC34C=CCN(C(C)(C)C)C(=O)[C@H]3N(CCCCCCO)C(=O)[C@@H]4C2C(=O)O1 (stereo not given in full)
N

What is the recorded call for this compound in the test? C=CC[C@]12N=C(c3ccc(OCCCO)cc3)O[C@H]1c1ccccc1N(Cc1ccccc1)C2=O
Y

What is the recorded call for this compound in the test? CCCC[C@H]1OB(O)C[C@H]2C1=C(COc1ccccc1)C[C@H]1C(=O)N(C)C(=O)[C@H]12
N

What is the recorded call for this compound in the test? CN(C)CCCNC(=O)[C@@]1(C)c2ccccc2C(=O)N(Cc2cc(F)cc(C(F)(F)F)c2)[C@H]1c1ccc(CO)cc1
N

What is the recorded call for this compound in the test? COc1ccc(C#Cc2ccc3c(c2)[C@]2(C(=O)N3)[C@H](c3ccccc3OCCO)N3[C@H](c4ccccc4)[C@H](c4ccccc4)OC(=O)[C@H]3[C@@H]2C(=O)O)cc1
N

What is the recorded call for this compound in the test? COCC(=C=CC[C@@H](O)c1ccccc1OCCO)C[C@@H](O)c1cc(Cl)cc(Cl)c1O
Y

What is the recorded call for this compound in the test? C[C@@]1([C@@H](NC(=O)c2ccccc2)c2ccc(-c3ccccc3)cc2)C[C@H]1C1CCCCC1
N

###

system: Left-right determination factor 2 (Homo sapiens) (UniProt O00292)
Sequence (O00292 whole entry, looked up): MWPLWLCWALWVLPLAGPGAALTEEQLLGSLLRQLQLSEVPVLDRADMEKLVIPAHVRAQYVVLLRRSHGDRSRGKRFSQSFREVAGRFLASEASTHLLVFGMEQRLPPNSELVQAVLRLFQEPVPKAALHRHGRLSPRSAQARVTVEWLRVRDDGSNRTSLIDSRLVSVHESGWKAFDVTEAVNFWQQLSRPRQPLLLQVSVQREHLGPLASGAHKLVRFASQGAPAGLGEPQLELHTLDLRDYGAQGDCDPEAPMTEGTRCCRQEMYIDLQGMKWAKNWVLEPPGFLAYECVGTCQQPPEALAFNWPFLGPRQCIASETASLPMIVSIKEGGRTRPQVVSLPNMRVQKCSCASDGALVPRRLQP
test.summary: LEFTY2 binders on small-molecule microarrays, primary screen, biochemical, small-molecule microarray, 635 nm fluorescence scan (AID 1110)
condition.description: LEFTY2 binding, higher = more signal
recorded.endpoint: composite z-score
Form rule: numeric answer, no unit written next to it.

I'd like to know its composite z-score. The compound in question is COc1ccc(C#Cc2ccc3c(c2)[C@]2(C(=O)N3)[C@H](c3ccccc3OCCO)N3[C@H](c4ccccc4)[C@H](c4ccccc4)OC(=O)[C@H]3[C@@H]2C(=O)O)cc1
0.186

I'd like to know its composite z-score. The compound in question is COCCOC(=O)N1C(=O)[C@@]2(c3cc(C#CC4=CCCCC4)ccc31)[C@H](C(N)=O)[C@H]1C(=O)O[C@H](c3ccccc3)[C@H](c3ccccc3)N1[C@@H]2c1ccc(OCCO)cc1
0.331

I'd like to know its composite z-score. The compound in question is [N-]=[N+]=NCc1ccccc1[C@@H]1OC(c2ccc(OCCCO)cc2)=N[C@]1(CCS(=O)(=O)c1ccccc1)C(=O)NCc1ccccc1
0.526

I'd like to know its composite z-score. The compound in question is O=C1C2C=CC(C(O)c3ccc(F)cc3)N(Nc3ccccc3F)C2C(=O)N1c1ccccc1 (stereo not drawn)
-0.952

I'd like to know its composite z-score. The compound in question is C=CCNC(=O)[C@@H]1[C@H]2C(=O)O[C@H](c3ccccc3)[C@H](c3ccccc3)N2[C@H](c2ccc(OCCO)cc2)[C@@]12C(=O)Nc1ccc(C#CCCO)cc12
1.28

I'd like to know its composite z-score. The compound in question is O=C(O)[C@@]1(CCS(=O)(=O)c2ccccc2)COC(c2ccc(OCCCO)cc2)=N1
-0.691

I'd like to know its composite z-score. The compound in question is COCCOC(=O)N1C(=O)[C@@]2(c3cc(C#CCCO)ccc31)[C@H](C(=O)N1CCc3cc(OC)c(OC)cc3C1)[C@H]1C(=O)O[C@H](c3ccccc3)[C@H](c3ccccc3)N1[C@@H]2c1ccc(O)cc1
0.332

I'd like to know its composite z-score. The compound in question is [N-]=[N+]=Nc1ccccc1C[C@@]1(C(=O)NCCN2CCOCC2)N=C(c2ccc(OCCCO)cc2)O[C@@H]1c1ccccc1
0.248

I'd like to know its composite z-score. The compound in question is C=CCN1C(=O)[C@]2(O[C@H](CCO)[C@@H]([Si](C)(C)c3ccc(OC)cc3)[C@@H]2C)c2cc(N3CCCCC3=O)ccc21
0.0651

I'd like to know its composite z-score. The compound in question is CCOC(=O)C[C@H]1[C@H](OC(=O)Cc2ccc3c(c2)OCO3)[C@@H](NC(=O)c2ccc(-c3ccccc3)cc2)c2cc(OCCCO)ccc2N1C(=O)c1ccc2ccccc2n1
0.445

I'd like to know its composite z-score. The compound in question is COCCOC(=O)N1C(=O)[C@@]2(c3cc(C#Cc4ccc(OC)cc4)ccc31)[C@H](C(N)=O)[C@H]1C(=O)O[C@H](c3ccccc3)[C@H](c3ccccc3)N1[C@@H]2c1ccccc1OCCO
0.738

I'd like to know its composite z-score. The compound in question is O=C1NCC(=O)N2[C@@H]1C[C@@H](C(=O)O)[C@H]2c1cccc(OCCO)c1
1.68

I'd like to know its composite z-score. The compound in question is CN1C(=O)C2C=CC(C(O)Cc3ccccc3)N(Nc3ccccc3)C2C1=O (stereo not drawn)
-0.244

###

system: Neurogenic locus notch homolog protein 3 (Homo sapiens)
test.summary: NOTCH3 binders on small-molecule microarray, primary screen, biochemical, 635/667 nm fluorescence (AID 1096)
condition.description: NOTCH3 binding, 635 nm fluorescence, higher = more signal
Where composite z-score equals or exceeds 1, the correct label is YES; where it does not, the label is NO.

Dear colleague, could you confirm whether COCC(=C=CC[C@@H](O)c1ccccc1OCCO)C[C@@H](O)c1cc(Cl)cc(Cl)c1O has composite z-score at or above 1?
YES

Dear colleague, could you confirm whether C=CCOC(=O)[C@H]1[C@@H]2C(=O)O[C@@H](c3ccccc3)[C@@H](c3ccccc3)N2[C@@H](c2ccc(OCCOC(=O)[C@@H]3C[C@@H]4C(=O)N[C@@H](CCCC[N+](C)(C)C)C(=O)N4[C@@H]3c3ccc(O)cc3)cc2)[C@]12C(=O)Nc1ccccc12 has composite z-score at or above 1?
YES

Dear colleague, could you confirm whether O=C1[C@H]2C=C(Br)[C@H](C[C@@H]2c2ccccc2)[C@@]12CO2 has composite z-score at or above 1?
NO

Dear colleague, could you confirm whether C=CC[C@@]1(C(=O)N(C)C)N=C(c2ccc(OCCCO)cc2)O[C@@H]1c1ccccc1N=[N+]=[N-] has composite z-score at or above 1?
YES

Dear colleague, could you confirm whether COc1ccc(C(=O)O[C@H]2CC[C@]3(C)C4=C(CCC3C2(C)C)[C@]2(C)CC[C@H]([C@H](C)CCCC(C)C)[C@@]2(C)CC4)cc1 (stereo partly specified) has composite z-score at or above 1?
NO

Dear colleague, could you confirm whether COc1ccc(C(=O)Nc2ccc(CN3C(=O)[C@@]4(O[C@@H](CCn5cc([C@H](O)c6ccccc6)nn5)[C@H]([Si](C)(C)c5ccc(OC)cc5)[C@H]4C)c4ccccc43)cc2)cc1 has composite z-score at or above 1?
NO
